- TESTED_TARGET: human MAGL (Homo sapiens, UniProt Q99685)
- Construct: recombinant MAGL enzyme (aa 2-303 RBC, internal preparation)
- Sequence (Q99685 2-303): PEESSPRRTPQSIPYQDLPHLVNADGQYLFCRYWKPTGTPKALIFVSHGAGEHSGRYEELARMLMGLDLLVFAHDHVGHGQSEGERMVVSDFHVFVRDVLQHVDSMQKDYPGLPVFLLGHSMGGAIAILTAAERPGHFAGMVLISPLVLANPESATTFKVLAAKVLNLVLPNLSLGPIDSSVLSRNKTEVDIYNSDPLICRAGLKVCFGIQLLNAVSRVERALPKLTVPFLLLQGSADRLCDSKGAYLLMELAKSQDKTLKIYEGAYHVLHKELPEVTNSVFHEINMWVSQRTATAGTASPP
- RUN_DESCRIPTION: MAGL inhibition potency, 4-nitrophenyl acetate (4NPA) hydrolysis, absorbance 405 nm (Example A)
- Assay type: biochemical
- EXPERIMENTAL_CONDITIONS: Method 12: Reaction Biology MAGL enzyme, 15 nM; 4NPA substrate; read-out: MAGL Potency (Detection Method)
pIC50: −log10 of the molar value.
Please provide measured pIC50 for the entries that follow.

INPUT: Tell me the measured pIC50 of O=C(c1cc(O)ccc1F)N1CC2(CC(n3ncc(C(F)(F)F)c3-c3ccc[nH]c3=O)C2)C1 [Compound 29] , please.
OUTPUT: 5.29 to 6.00

INPUT: Could you share which pIC50 value was measured for O=C(c1cc(O)ccc1F)N1CC2(CC(n3nc(-c4cncc(F)c4)cc3C(F)(F)F)C2)C1 [Compound 14] ?
OUTPUT: 6.82 to 7.30

INPUT: What measured pIC50 goes with COc1ccc(-c2c(C(F)(F)F)cnn2C2CC3(C2)CN(C(=O)c2cc(O)ccc2F)C3)cn1 [Compound 27] ?
OUTPUT: 6.82 to 7.30

INPUT: I'd like to know its pIC50. The molecule in question is O=C(c1cc(O)ccc1F)N1CC2(CC(n3cc(C(F)(F)F)c(-c4ccc(=O)[nH]c4)n3)C2)C1 [Compound 32]
OUTPUT: 6.82 to 7.30

INPUT: Recorded pIC50 for O=C(c1cc(O)ccc1F)N1CC2(CC(n3nc(C(F)(F)F)cc3-c3ccc[nH]c3=O)C2)C1 [Compound 11] , please?
OUTPUT: 6.30 to 6.82

INPUT: Could you share which pIC50 value was measured for O=C(c1cc(O)ccc1F)N1CC2(CC(n3cc(C(F)(F)F)c(-c4cccnc4)n3)C2)C1 [Compound 2] ?
OUTPUT: > 7.30

INPUT: Look up pIC50: O=C(c1cc(O)ccc1F)N1CC2(CC(n3ncc(C(F)(F)F)c3-c3ccc(=O)[nH]c3)C2)C1 [Compound 31]
OUTPUT: 5.29 to 6.00

INPUT: Please give the measured pIC50 for this molecule: O=C(c1cc(O)ccc1F)N1CC2(CC(n3nc(-c4ccc[nH]c4=O)cc3C(F)(F)F)C2)C1 [Compound 12]
OUTPUT: > 7.30

INPUT: Which pIC50 reading was recorded for the molecule COc1ncccc1-c1cc(C(F)(F)F)nn1C1CC2(C1)CN(C(=O)c1cc(O)ccc1F)C2 [Compound 16] ?
OUTPUT: 6.82 to 7.30

INPUT: pIC50 for O=C1CCC(c2c(C(F)(F)F)cnn2C2CC3(C2)CN(C(=O)c2cc(O)ccc2F)C3)CN1 (stereo not drawn) [Compound 41] ?
OUTPUT: 6.30 to 6.82

INPUT: Would you kindly share the measured pIC50 for O=C(c1cc(O)ccc1F)N1CC2(CC(n3nc(-c4ccccn4)cc3C(F)(F)F)C2)C1 [Compound 6] ?
OUTPUT: 6.30 to 6.82

INPUT: Looking for the measured pIC50 of COc1ccc(-c2nn(C3CC4(C3)CN(C(=O)c3cc(O)ccc3F)C4)cc2C(F)(F)F)cn1 [Compound 28] , can you help?
OUTPUT: > 7.30

INPUT: GET /values?readout=pIC50&item= O=C(c1cc(O)ccc1F)N1CC2(CC(n3nc(C(F)(F)F)cc3-c3ccncc3)C2)C1 [Compound 7]
OUTPUT: 6.30 to 6.82

INPUT: I'd like to know its pIC50. The molecule in question is O=C(c1cc(O)ccc1F)N1CC2(CC(n3nc(-c4ccc(=O)[nH]c4)cc3C(F)(F)F)C2)C1 [Compound 10]
OUTPUT: > 7.30

INPUT: Fill in: pIC50 of O=C(c1cc(O)ccc1F)N1CC2(CC(n3nc(C(F)(F)F)cc3-c3cccnc3)C2)C1 [Compound 3] is ___
OUTPUT: 6.82 to 7.30
